B1: POU domain, class 3, transcription factor 3, residues 408 to 463; numbered along this chain, P20264 (parent)
chain: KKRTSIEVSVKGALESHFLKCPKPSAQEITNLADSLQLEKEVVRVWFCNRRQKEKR

- Variants of: B1
- ASSAY NAME: abundance fitness (aPCA) (normalised: wild type 0, dead -1); higher = more abundant; growth selection in yeast, the domain comes from the species named
- TEST PARAMETERS: Homo sapiens
Dear colleague, classification is by abundance fitness, with ranges listed here: group A: < -0.2; group B: ≥ -0.2 and < -0.06; group C: ≥ -0.06

Previously resolved entries follow.
[
  {
    "CHANGE": "R51Y",
    "LABEL": "group C"
  },
  {
    "CHANGE": "S35N",
    "LABEL": "group B"
  },
  {
    "CHANGE": "R51C",
    "LABEL": "group A"
  },
  {
    "CHANGE": "I29C",
    "LABEL": "group A"
  },
  {
    "CHANGE": "E28W",
    "LABEL": "group A"
  },
  {
    "CHANGE": "K11Q",
    "LABEL": "group C"
  },
  {
    "CHANGE": "I6P",
    "LABEL": "group C"
  },
  {
    "CHANGE": "E7R",
    "LABEL": "group C"
  }
]

Consider now this further variant.
IN: # classify by abundance fitness band: E41A
OUT: group A
